System: KM12 colon
ASSAY_NAME: NCI-60 one-dose screen, 48 h
CONDITION_PARAMETERS: 10 µM
About 83,000 compounds went through this panel and 20% of them were active in at least one assay; those are over-represented in the sample as a whole. Activity calls are given as the source filed them. The calls were made as follows: active = growth percent below 10; inactive = the rest.
API: response.call in active, inactive

Lab log entry: NNc1ccccc1 — outcome as called in the assay? inactive

Lab log entry: S=C=NCCc1ccccc1 — outcome as called in the assay? inactive

Lab log entry: NC(=O)c1cc([N+](=O)[O-])c(Cl)c([N+](=O)[O-])c1 — outcome as called in the assay? inactive

Lab log entry: O=[N+]([O-])/C=C\c1ccc2c(c1)OCO2 — outcome as called in the assay? inactive

Lab log entry: COc1cc(/C=C/[N+](=O)[O-])cc(OC)c1OC — outcome as called in the assay? inactive

Lab log entry: Cc1cc(C)c(C[N+](C)(C)C)c(C)c1C — outcome as called in the assay? active

Lab log entry: CC(C)C1(NC(=O)C2CC3c4cccc5[nH]cc(c45)CC3N(C)C2)OC2(O)C3CCCN3C(=O)C(Cc3ccccc3)N2C1=O (centres undefined) — outcome as called in the assay? inactive

Lab log entry: C=C1C(=O)O[C@@H]2C[C@@H](C)[C@@H]3C=CC(=O)[C@@]3(C)[C@@H](O)[C@H]12 — outcome as called in the assay? active

Lab log entry: O=C(CCl)Nc1ccc(Cl)cc1 — outcome as called in the assay? inactive
